B1: ATL3 (parent)
chain: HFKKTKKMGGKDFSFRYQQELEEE

# Variants of: B1
# method notes: protein stability index of a GFP-peptide fusion (GPS, HEK-293T) (PSI 1-6); higher = more stable;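 also: lentivirally expressed fusions sorted by FACS into six bins by GFP to DsRed ratio, PSI derived from sequencing read proportions per bin multiplied by bin number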
# run conditions: c terminus: a fixed tail appended
parameter measured: protein stability index
Answer using only a numeral; do not append any unit.

Exercise: Sample `R16G` — what was its protein stability index?
Solution: 4.22

Exercise: Sample `M8C` — what was its protein stability index?
Solution: 2.24

Exercise: Sample `Y17W` — what was its protein stability index?
Solution: 2.61

Exercise: Sample `K3Y` — what was its protein stability index?
Solution: 2.75

Exercise: Sample `E24S` — what was its protein stability index?
Solution: 2.85

Exercise: Sample `R16M` — what was its protein stability index?
Solution: 2.84

Exercise: Sample `S14Y` — what was its protein stability index?
Solution: 3.61

Exercise: Sample `Y17D` — what was its protein stability index?
Solution: 5.61

Exercise: Sample `K4H` — what was its protein stability index?
Solution: 2.1

Exercise: Sample `E23L` — what was its protein stability index?
Solution: 2.22

Exercise: Sample `E22W` — what was its protein stability index?
Solution: 1.3

Exercise: Sample `T5G` — what was its protein stability index?
Solution: 1.35

Exercise: Sample `M8V` — what was its protein stability index?
Solution: 1.64

Exercise: Sample `Q19T` — what was its protein stability index?
Solution: 2.21

Exercise: Sample `K4V` — what was its protein stability index?
Solution: 1.62

Exercise: Sample `T5R` — what was its protein stability index?
Solution: 1.31

Exercise: Sample `D12N` — what was its protein stability index?
Solution: 2.1

Exercise: Sample `H1A` — what was its protein stability index?
Solution: 2.35

Exercise: Sample `G9T` — what was its protein stability index?
Solution: 2.11

Exercise: Sample `K6S` — what was its protein stability index?
Solution: 1.81

Exercise: Sample `M8R` — what was its protein stability index?
Solution: 2.81

Exercise: Sample `K3G` — what was its protein stability index?
Solution: 1.86

Exercise: Sample `K7P` — what was its protein stability index?
Solution: 2.56

Exercise: Sample `F2L` — what was its protein stability index?
Solution: 1.39

Exercise: Sample `G9H` — what was its protein stability index?
Solution: 1.84

Exercise: Sample `K4L` — what was its protein stability index?
Solution: 2.6

Exercise: Sample `G10R` — what was its protein stability index?
Solution: 2.03

Exercise: Sample `F13T` — what was its protein stability index?
Solution: 4.97

Exercise: Sample `K3E` — what was its protein stability index?
Solution: 1.43

Exercise: Sample `F2P` — what was its protein stability index?
Solution: 1.26

Exercise: Sample `G10D` — what was its protein stability index?
Solution: 1.8

Exercise: Sample `R16E` — what was its protein stability index?
Solution: 5.18

Exercise: Sample `F15P` — what was its protein stability index?
Solution: 4.31

Exercise: Sample `K3H` — what was its protein stability index?
Solution: 1.73

Exercise: Sample `E22S` — what was its protein stability index?
Solution: 1.8

Exercise: Sample `L21R` — what was its protein stability index?
Solution: 2.46

Exercise: Sample `R16S` — what was its protein stability index?
Solution: 4.39

Exercise: Sample `E22G` — what was its protein stability index?
Solution: 2.5

Exercise: Sample `R16F` — what was its protein stability index?
Solution: 3.07

Exercise: Sample `K4Y` — what was its protein stability index?
Solution: 1.23

Exercise: Sample `Q18L` — what was its protein stability index?
Solution: 2.64

Exercise: Sample `G9R` — what was its protein stability index?
Solution: 1.77

Exercise: Sample `M8N` — what was its protein stability index?
Solution: 2.4

Exercise: Sample `M8Q` — what was its protein stability index?
Solution: 2.21

Exercise: Sample `L21S` — what was its protein stability index?
Solution: 4

Exercise: Sample `Q19D` — what was its protein stability index?
Solution: 3.36

Exercise: Sample `K4P` — what was its protein stability index?
Solution: 1.82

Exercise: Sample `G9F` — what was its protein stability index?
Solution: 2.64

Exercise: Sample `Q19C` — what was its protein stability index?
Solution: 1.57

Exercise: Sample `K11W` — what was its protein stability index?
Solution: 1.78

Exercise: Sample `K7S` — what was its protein stability index?
Solution: 2.04

Exercise: Sample `R16D` — what was its protein stability index?
Solution: 5.02

Exercise: Sample `R16W` — what was its protein stability index?
Solution: 2.11

Exercise: Sample `K4N` — what was its protein stability index?
Solution: 2.26

Exercise: Sample `E22D` — what was its protein stability index?
Solution: 2.2

Exercise: Sample `E24I` — what was its protein stability index?
Solution: 2.16

Exercise: Sample `G10M` — what was its protein stability index?
Solution: 2.71

Exercise: Sample `G9E` — what was its protein stability index?
Solution: 1.77

Exercise: Sample `E23K` — what was its protein stability index?
Solution: 2.46

Exercise: Sample `E20T` — what was its protein stability index?
Solution: 3.31

Exercise: Sample `K3V` — what was its protein stability index?
Solution: 2.4

Exercise: Sample `F15K` — what was its protein stability index?
Solution: 3.04

Exercise: Sample `G10S` — what was its protein stability index?
Solution: 3.53

Exercise: Sample `G9V` — what was its protein stability index?
Solution: 1.82

Exercise: Sample `E24Y` — what was its protein stability index?
Solution: 1.54

Exercise: Sample `R16N` — what was its protein stability index?
Solution: 3.69

Exercise: Sample `M8S` — what was its protein stability index?
Solution: 2.77

Exercise: Sample `K3F` — what was its protein stability index?
Solution: 2.41

Exercise: Sample `G9K` — what was its protein stability index?
Solution: 2.7

Exercise: Sample `K4Q` — what was its protein stability index?
Solution: 1.75

Exercise: Sample `L21V` — what was its protein stability index?
Solution: 2.72

Exercise: Sample `K4M` — what was its protein stability index?
Solution: 2.26

Exercise: Sample `F2E` — what was its protein stability index?
Solution: 1.09

Exercise: Sample `S14V` — what was its protein stability index?
Solution: 2.17

Exercise: Sample `E22P` — what was its protein stability index?
Solution: 3.31

Exercise: Sample `S14G` — what was its protein stability index?
Solution: 2.54

Exercise: Sample `F2Q` — what was its protein stability index?
Solution: 3.05

Exercise: Sample `E23M` — what was its protein stability index?
Solution: 2.61

Exercise: Sample `E22M` — what was its protein stability index?
Solution: 1.8

Exercise: Sample `D12I` — what was its protein stability index?
Solution: 2.43

Exercise: Sample `R16Y` — what was its protein stability index?
Solution: 2.18

Exercise: Sample `K6I` — what was its protein stability index?
Solution: 1.37

Where these numbers come from: the supplement of paper PMC10567573
